B1: RAB22A (parent)
chain: FVEDSFDPNINPTIGASFMTKTVQ

Variants of: B1
Assay: protein stability index of a GFP-peptide fusion (GPS, HEK-293T) (PSI 1-6); higher = more stable;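 also: lentivirally expressed fusions sorted by FACS into six bins by GFP to DsRed ratio, PSI derived from sequencing read proportions per bin multiplied by bin number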
Conditions: c terminus: a fixed tail appended
Threshold check on protein stability index: at or above 3 gives 1 (yes), strictly below gives 0 (no).

Please review the following examples before continuing.
T13R
0 (no)
F1S
1 (yes)
F18W
0 (no)
S5V
0 (no)
F1E
1 (yes)
D7S
0 (no)

INPUT: Item V2L with protein stability index of 3 or above?
OUTPUT: 1 (yes)
